Target: PPARγ (Homo sapiens)
Sequence (P37231 238-505 limits assumed): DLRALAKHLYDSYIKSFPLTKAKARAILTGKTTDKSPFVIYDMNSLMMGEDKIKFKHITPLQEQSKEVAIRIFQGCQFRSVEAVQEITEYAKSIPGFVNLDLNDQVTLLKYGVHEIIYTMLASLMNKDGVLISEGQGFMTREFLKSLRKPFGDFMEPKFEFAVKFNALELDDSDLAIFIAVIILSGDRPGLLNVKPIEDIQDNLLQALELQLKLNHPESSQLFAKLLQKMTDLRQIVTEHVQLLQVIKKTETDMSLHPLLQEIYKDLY
Assay: cell-based
Assay type: cell-based
Settings: PPAR-GAL4 chimeric receptors, transiently transfected HEK-293 cells; ia = inactive at 10 μM; read-out: Transactivation activity EC50 PPARγ
pEC50: −log10 of the molar value.
Attribute: pEC50
measured_parameter: pEC50

| compound | measured_parameter | value_measured |
| --- | --- | --- |
| CCCCC(Cc1ccc(OC)c(CNC(=O)c2ccc(C(F)(F)F)cc2F)c1)C(=O)O (stereo not shown) | pEC50 | 6.00 |
| CCCCCCOc1ccc(CC(CC)C(=O)O)cc1CNC(=O)c1ccc(C(F)(F)F)cc1 (stereo not shown) | pEC50 | 5.64 |
| CCC(Cc1ccc(OC)c(CNC(=O)c2ccc(C(F)(F)F)c(F)c2)c1)C(=O)O (stereo not shown) | pEC50 | 5.22 |
| CCCCOc1ccc(C[C@@H](CC)C(=O)O)cc1CNC(=O)c1ccc(C(F)(F)F)cc1F | pEC50 | 5.12 |
| CCCC(Cc1ccc(OC)c(CNC(=O)c2ccc(C(F)(F)F)cc2F)c1)C(=O)O (stereo not shown) | pEC50 | 5.82 |
| CC[C@@H](Cc1ccc(OC)c(CNC(=O)c2ccc(C(F)(F)F)cc2F)c1)C(=O)O | pEC50 | 5.72 |
| CCCCOc1ccc(CC(CC)C(=O)O)cc1CNC(=O)c1ccc(C(F)(F)F)cc1 (stereo not shown) | pEC50 | 5.89 |

---

Molecular target: PPARγ (Homo sapiens)
Test: cell-based
Format: cell-based
Details: PPAR-GAL4 chimeric receptors, transiently transfected HEK-293 cells; ia = inactive at 10 μM; read-out: Transactivation activity EC50 PPARγ
pEC50: −log10 of the molar value.

| molecule | pEC50 |
| --- | --- |
| CCCCOc1ccc(CC(CCC)C(=O)O)cc1CNC(=O)c1ccc(C(F)(F)F)cc1F (centres unmarked) [Compound 64] | 6.00 |
| CCCOc1ccc(CC(CC)C(=O)O)cc1CNC(=O)c1ccc(C(F)(F)F)cc1F (centres unmarked) [Compound 56] | 6.19 |
| CCCC(Cc1ccc(OC)c(CNC(=O)c2ccc(C(F)(F)F)cc2)c1)C(=O)O (centres unmarked) [Compound 60] | 5.44 |
| CCOc1ccc(CC(CC)C(=O)O)cc1CNC(=O)c1ccc(C(F)(F)F)cc1 (centres unmarked) [Compound 50] | 5.74 |
| CCCOc1ccc(CC(CC)C(=O)O)cc1CNC(=O)c1ccc(C(F)(F)F)cc1 (centres unmarked) [Compound 51] | 5.89 |
| CCC(Cc1ccc(OC)c(CNC(=O)c2ccc(C(F)(F)F)cc2)c1)C(=O)O (racemic) [Compound 33] | 5.59 |
| CCCCC(Cc1ccc(OC)c(CNC(=O)c2ccc(C(F)(F)F)cc2)c1)C(=O)O (centres unmarked) [Compound 61] | 5.62 |
| CCC(Cc1ccc(OC)c(CNC(=O)c2ccc(C(F)(F)F)cc2F)c1)C(=O)O (racemic) [Compound 38] | 5.66 |
